Molecular target: T1, HLA-A*24:02 molecule (HLA-A*24:02 gene product) (human)
T1 construct: MHC class I on acid-stripped C1R-A24 cells; The endogenous peptide and b2m were removed, then purified b2m was added
Test: flow cytometry, acid-stripped C1R-A24 cells + purified b2m, peptide dilution series, 17A12 staining
readout.kind: Data of binding experiment (log Kd)
Write the answer as a number in log Kd, unit excluded.

Consider the reported Data of binding experiment (log Kd) for these binders:
[[record]]
binder = "SFFFLSFHI (Only the start position in MUC1 is printed; The end of the range follows from the length of 9 residues) [SFFFLSFHI (Seq. ID No. 8)]"
readout_kind = "Data of binding experiment (log Kd)"
reading_unit = "log Kd"
assay_result = -7.07

[[record]]
binder = "AASRYNLTI (Only the start position in MUC1 is printed; The end of the range follows from the length of 9 residues) [AASRYNLTI (Seq. ID No. 5)]"
readout_kind = "Data of binding experiment (log Kd)"
reading_unit = "log Kd"
assay_result = -6.15

[[record]]
binder = "SVPVTRPAL (Only the start position in MUC1 is printed; The end of the range follows from the length of 9 residues) [SVPVTRPAL (Seq. ID No. 2)]"
readout_kind = "Data of binding experiment (log Kd)"
reading_unit = "log Kd"
assay_result = -7.24

[[record]]
binder = "HHSDTPTTL (Only the start position in MUC1 is printed; The end of the range follows from the length of 9 residues) [HHSDTPTTL (Seq. ID No. 7)]"
readout_kind = "Data of binding experiment (log Kd)"
reading_unit = "log Kd"
assay_result = -5.87


What measured Data of binding experiment (log Kd) goes with AFREGTINV (Only the start position in MUC1 is printed; The end of the range follows from the length of 9 residues) [AFREGTINV (Seq. ID No. 4)] ? -5.83
